assayed.target: UniProt P20272
experimental.protocol: Displacement of [3H]CP-55,940 from CB1 receptor in rat brain membranes in presence of FAAH inhibitor PMSF by radioligand binding assay
Format: cell membranes, Membrane
Can you tell me Ki for the items I'm about to list?
Give just the number in nM; leave the unit off.

Quick note, Ki for C[C@H](/C=C\C/C=C\C/C=C\CCCC(=O)N[C@H](C)CO)/C=C\CCCOc1ccccc1 landed at 83

Quick note, Ki for CCCCC/C=C\[C@H](C)/C=C\C/C=C\C/C=C\CCCC(=O)NCCCl landed at 3.9

Quick note, Ki for CCCCC/C=C\[C@H](C)/C=C\C/C=C\C/C=C\CCCC(=O)NC1CC1 landed at 1.5

Quick note, Ki for CCCCC/C=C\C/C=C\C/C=C\[C@@H](C)/C=C\CCCC(=O)N[C@H](C)CO landed at 21.4

* * *

assayed.target: UniProt Q9BV23
Sequence (Q9BV23 whole entry): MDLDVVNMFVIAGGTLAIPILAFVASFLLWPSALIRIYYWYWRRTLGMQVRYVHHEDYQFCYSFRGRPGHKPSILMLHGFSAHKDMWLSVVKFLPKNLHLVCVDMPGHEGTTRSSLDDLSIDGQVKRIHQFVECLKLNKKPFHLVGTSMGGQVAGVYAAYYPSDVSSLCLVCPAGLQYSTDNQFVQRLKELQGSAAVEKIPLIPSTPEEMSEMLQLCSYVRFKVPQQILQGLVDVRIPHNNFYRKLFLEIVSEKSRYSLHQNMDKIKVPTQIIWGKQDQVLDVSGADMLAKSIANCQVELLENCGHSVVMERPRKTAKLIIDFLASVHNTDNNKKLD
experimental.protocol: Stability assessed as human ABHD6-mediated compound hydrolysis by HPLC analysis
Assay type: ADME
settings: read-out: Stability
assay.readout: half-life

Quick note, half-life for CCCCC/C=C\[C@H](C)/C=C\C/C=C\C/C=C\CCCC(=O)N[C@H](C)CO landed at 30 min

* * *

assayed.target: Cannabinoid receptor 1 (Rattus norvegicus) (UniProt P20272)
Sequence (P20272 whole entry): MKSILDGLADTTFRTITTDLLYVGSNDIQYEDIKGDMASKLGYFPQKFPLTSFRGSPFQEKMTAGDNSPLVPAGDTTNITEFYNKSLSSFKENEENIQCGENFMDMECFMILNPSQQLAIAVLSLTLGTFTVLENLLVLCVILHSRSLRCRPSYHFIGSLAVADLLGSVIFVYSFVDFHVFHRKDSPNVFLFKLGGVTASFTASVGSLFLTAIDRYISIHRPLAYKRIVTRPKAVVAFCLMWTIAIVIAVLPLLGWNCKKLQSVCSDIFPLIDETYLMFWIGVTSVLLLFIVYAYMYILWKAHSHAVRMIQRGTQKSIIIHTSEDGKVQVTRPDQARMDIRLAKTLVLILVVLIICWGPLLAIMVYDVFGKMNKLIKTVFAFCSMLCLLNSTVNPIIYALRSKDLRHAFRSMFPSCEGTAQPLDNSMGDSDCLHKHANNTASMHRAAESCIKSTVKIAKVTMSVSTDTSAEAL
experimental.protocol: Agonist activity at rat CB1 receptor expressed in HEK293 cells assessed as inhibition of forskolin-induced cAMP accumulation incubated for 30 mins relative to 500 nM CP-55,940
Assay type: functional, cell-based
Activity calls are given as the source filed them. The rule behind the calls is not given here.
assay.readout: Emax

Please review the following examples before continuing.
compound=CCCCC/C=C\C/C=C\C/C=C\[C@@H](C)/C=C\CCCC(=O)NCCO result=inactive
compound=C#CCNC(=O)CCC/C=C\C/C=C\C/C=C\[C@@H](C)/C=C\CCCCC result=89%
compound=CCCCC/C=C\[C@H](C)/C=C\C/C=C\C/C=C\CCCC(=O)N[C@H](C)CO result=76%
compound=CCCCC/C=C\[C@H](C)/C=C\C/C=C\C/C=C\CCCC(=O)NCCO result=88%
compound=CCCCC/C=C\C/C=C\C/C=C\[C@@H](C)/C=C\CCCC(=O)N[C@H](C)CO result=98%

Quick note, Emax for CCCCC/C=C\C/C=C\C/C=C\[C@H](C)/C=C\CCCC(=O)N[C@H](C)CO landed at 100%

* * *

assayed.target: Cannabinoid receptor 2 (Mus musculus, UniProt P47936)
Sequence (P47936 whole entry): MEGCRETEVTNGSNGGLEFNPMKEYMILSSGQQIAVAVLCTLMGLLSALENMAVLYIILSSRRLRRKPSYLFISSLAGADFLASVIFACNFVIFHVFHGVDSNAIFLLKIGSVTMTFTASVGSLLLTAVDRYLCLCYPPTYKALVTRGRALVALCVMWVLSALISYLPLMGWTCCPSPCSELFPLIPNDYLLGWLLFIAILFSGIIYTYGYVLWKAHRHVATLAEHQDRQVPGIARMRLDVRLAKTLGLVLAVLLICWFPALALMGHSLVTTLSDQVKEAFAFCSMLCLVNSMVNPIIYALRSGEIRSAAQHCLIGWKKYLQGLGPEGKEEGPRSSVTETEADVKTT
experimental.protocol: Displacement of [3H]CP-55,940 from mouse CB2 receptor expressed in HEK293 cell membranes in absence of FAAH inhibitor PMSF by radioligand binding assay
Can you tell me log10 of Ki for the items I'm about to list?
# log10 transformed; quantity=Ki; unit=nM

// assay Cannabinoid receptor 2 (Mus musculus, UniProt P47936), entry CCCCC/C=C\[C@H](C)/C=C\C/C=C\C/C=C\CCCC(=O)NC1CC1 , log10 of Ki value = 1.76

// assay Cannabinoid receptor 2 (Mus musculus, UniProt P47936), entry C#CCNC(=O)CCC/C=C\C/C=C\C/C=C\[C@@H](C)/C=C\CCCCC , log10 of Ki value = 1.87

// assay Cannabinoid receptor 2 (Mus musculus, UniProt P47936), entry CCCCC/C=C\C/C=C\C/C=C\[C@H](C)/C=C\CCCC(=O)N[C@H](C)CO , log10 of Ki value = 1.30

// assay Cannabinoid receptor 2 (Mus musculus, UniProt P47936), entry CCCCC/C=C\[C@H](C)/C=C\C/C=C\C/C=C\CCCC(=O)NC1CCC1 , log10 of Ki value = 1.95

// assay Cannabinoid receptor 2 (Mus musculus, UniProt P47936), entry CCCCC/C=C\[C@H](C)/C=C\C/C=C\C/C=C\CCCC(=O)NCCCl , log10 of Ki value = 2.60

All values here come from ChEMBL document CHEMBL4196195.
